system: ACVR2A; conditions: concentration: 1 μM,replicates: in singlicate; n = 1;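 also: KINOMEscan kinase panel screen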
Observation type: %Inh (%)
# number only, unit % dropped from output

Write down %Inh measured for item O=C(Nc1ccc(Oc2ccc3nc(NC(=O)C4CC4)cn3n2)c(F)c1)c1cccn(-c2ccccc2)c1=O
28

Write down %Inh measured for item COc1cc(Nc2nccc(N3CCC(NC(=O)c4cccc(C#N)c4)C3)n2)cc(OC)c1OC (stereo not drawn)
0

Write down %Inh measured for item FC(F)(F)c1cc(Br)cc(Nc2nccc(-c3cnn4ncccc34)n2)c1
13

Write down %Inh measured for item CCNCC(Cc1ccccc1)NC(=O)c1cc(Br)c(-c2ccnc3[nH]ccc23)s1.Cl.Cl (stereo not drawn)
0

Write down %Inh measured for item Cc1ccc(CC(=O)N2CCc3cc(-c4cn(C)c5ncnc(N)c45)ccc32)cc1
0

Write down %Inh measured for item COc1cc2ncn(-c3cc(OCC4CCCCC4)c(C(N)=O)s3)c2cc1OC
18

Write down %Inh measured for item Cl.Nc1n[nH]c2cc(-c3ccccn3)ccc12
0

Write down %Inh measured for item Cn1ccc2ncnc(Oc3ccc(NC(=O)Nc4cncc(C(F)(F)F)c4)c(Cl)c3)c21
0

Write down %Inh measured for item CN1CCN(CCCNc2nccc(-c3c(-c4ccc(F)cc4)nn4cc(C(N)=O)ccc34)n2)CC1
19
